# test.method.notes: yeast display, Sf9 membrane polyspecificity reagent, FACS + sequencing; frameworks hold sequencing errors
value.type: polyreactivity (PSR sort gate)

// below: answered sequences
QVQHVESGGGLVQAGGSLRLSCAASGLIFPRYAMGLYRQAPGKERELVAAINWRGGITYYADSVKGRFTISRDNAKNTVYLQMNSLKPEDTAVYYCAAAVKHVAYHYNYWGQGTQVTVSS
high polyreactivity
QVQLVESGGGLVQAGGSLRLSCAASGRTFPGYAMGWYRQAPGKERELVAVISWSGGRTNYADSVKGRFTISRDNAKNTVYLQMNSLKPEDTAVYYCAARYHGHSNDYWGQGTQVTVSS
low polyreactivity
QVQLVESGGGLVQAGGSLRLSCAASRIIFYAYAMRWYRQAPGNERELVAAMSWSGGSTYYADSVKGRYTISRDNAKNTFYLQMNSLKPEDTAVYYCAAYFNIYGLEYDYWGQGTQVTVSS
high polyreactivity
QVQLVESGGGLVQAGGSLRLSCAASGRIIGGYAMGWYRQAPGKERELVAAITFRSGTTYYADSVKGRFTISRDNAKNTVYLQMNSLKPEDTAVYYCAARWGPYAFTYVRTYDYWGQGTQVTVSS
low polyreactivity
QVQLVESGGGLVQAGGSLRLSCAASGGTFGVYYAMGRYRQAPGKERELVADISWSAGSTYYADSVKGRFTISRDNAKNTVYLQMNSLKPEDTAVYYCAARYAVYWPWYVREYDYWGQGTQVTVSS
low polyreactivity
QVQLVESGGGLVQAGGSLRLTCAASGLILDGYAMGWYRQAPGKERELVAAITRSGGRTYYADSVKGRFTISRDNAKNTVYLQMNSLKPEDTAVDYCAADTYRYHLIATDDYWGQGTQVTVSS
high polyreactivity
QVHLVESGGGLVQAGGSLRLSCAASGRTFSRYPMGWYRQAPGKERELVAAIRGNSGNTYYAYSVKGRFTISRDNAKNTVYLQMNSLKPEDTAVYYCAKPFNIWGQGTQVTVSS
high polyreactivity
QVQLVESGGGLVQAGGSLRLSCAASGFIFRYYAMGWYRQAPGKERELVAAIRRGGSTSYADSVKGRFTISRDNAKNTVYLQMNSLKPEDTAVYYCNALGNFGMDYWGQGTQVTVSS
high polyreactivity
QVQLVESGGGLVQAGGSLRLSCAASGSIFYGNTMGWYRQAPGKERELVAAISSGGSTKYADSVKGRFTISRDNAKNTVYLQMNSLKPEDTAVYYCAKVAPRSSSSQEYYYWGQGTQVTVSS
low polyreactivity
QVQLVESGGGLVQAGGSLRLSCAASGSIIPYNAMGWYRQAPGKERYLVATISSGGSTNYADSVKGRFTISRDNAKNTVYLQMNSLKPEDTAVYYCAADVIVFYYAPNYWGDIEYGYWGQGTQVTVSS
low polyreactivity

Would you mind telling me what polyreactivity (PSR sort gate) value was observed for QVQLVESGGGLVQAGGSLRLSCAASGRTFFRYAMGWYRPAPGKERELVAAITRSGGSTYYADSVKGRFTISRDNAKNTVYLLMNSLKPEDTAVYYCAAPREAYSRGYDSWGQGTQVTVSS ?
high polyreactivity
